tested on: NCI-H1648; assay: relative viability (nuclei count vs DMSO), 5 days (fraction); higher = more cells survive; conditions: first compound 0.01 µM
Assay Metric: relative viability
Number only, no unit.

Given the compound NC(=O)Nc1cc(-c2cccc(F)c2)sc1C(=O)N[C@H]1CCCNC1 [AZD7762] + Cc1cc(Nc2cc(N3CCN(C)CC3)nc(Sc3ccc(NC(=O)C4CC4)cc3)n2)n[nH]1 [Tozasertib] (partner 0.1 µM) , what is its reported relative viability?
0.527

Given the entry NC(=O)Nc1cc(-c2cccc(F)c2)sc1C(=O)N[C@H]1CCCNC1 [AZD7762] + O=C(CCCCCCC(=O)Nc1ccccc1)NO [Vorinostat] (partner 1 µM) , report its measured relative viability.
0.735

I am curious: what relative viability value has been reported for NC(=O)Nc1cc(-c2cccc(F)c2)sc1C(=O)N[C@H]1CCCNC1 [AZD7762] + COc1cccc2cc(-c3nc([C@H]4CC[C@H](C(=O)O)CC4)n4ncnc(N)c34)[nH]c12 [OSI-027] (partner 0.5 µM) ?
0.244

Consider now this further compound.
Using the record for NC(=O)Nc1cc(-c2cccc(F)c2)sc1C(=O)N[C@H]1CCCNC1 [AZD7762] + CC(=O)c1c(C)c2cnc(Nc3ccc(N4CCNCC4)cn3)nc2n(C2CCCC2)c1=O [Palbociclib] (partner 0.5 µM) , report its relative viability.
0.394

The reported numbers originate from the supplement of paper PMC10307832.
